tested on: EKVX NSCLC; assay: NCI tumour cell line growth inhibition, 48 h
Overview of recorded TGI for various compounds

Record excerpt, results attached:
{"compound": "COc1ccc(N(CN2C(=O)CCC2OC)C(C)=O)cc1 (stereo unspecified)", "TGI": "> 100 µM"}
{"compound": "NC1(P(=O)(O)O)CCCCC1", "TGI": "> 100 µM"}
{"compound": "CN(C)CCNc1ccc2nnn3c4ccc(O)cc4c(=O)c1c23", "TGI": "18.5 µM"}

The compound N#CC(C(=O)C(N)=O)c1ccccc1Cl (stereo unspecified) showed TGI equal to > 100 µM

The compound `O=S(=O)(Nc1cc(F)cc(F)c1)c1ccc(-c2cnc(C3CC3)o2)cc1` showed TGI equal to > 100 µM

The compound `COc1ccc(CNc2nc3ccccc3nc2C(=O)O)cc1OC` showed TGI equal to > 100 µM

The compound `COc1ccc2nc3c(n2c1)C(=O)C(=O)c1ccccc1-3` showed TGI equal to 4.83 µM

The compound CCOC(=O)C(C(=O)OCC)P(=S)(S)c1ccccc1 (stereo unspecified) showed TGI equal to > 100 µM

The compound `CCCCS/C(=C(/C#N)C(N)=O)c1cc2c([nH]1)CCCC2` showed TGI equal to 24.4 µM

The compound `COC(=O)[C@@H]1c2[nH]c3ccccc3c2C[C@@H]2c3ccccc3NC(=O)[C@@H]21` showed TGI equal to > 100 µM

The compound `Cc1ccc(C(=O)N/N=C(\N=Nc2cccc(C)c2)c2ccc(N(CCC#N)CCC#N)cc2C)cc1` showed TGI equal to > 100 µM

The compound `COc1ccc(NC(=S)N/N=C(\c2ccccc2)c2ccccn2)cc1` showed TGI equal to 2.65 µM

The compound COc1ccc(C2NC(=O)c3cc4c(cc3N2)OCO4)cc1 (stereo unspecified) showed TGI equal to > 100 µM

The compound `CC(C)(C(=O)NCC(F)(F)C(F)(F)F)C(=O)N[C@@H]1C(=O)Nc2ccccc2-c2ccccc21` showed TGI equal to > 100 µM

The compound `N#CNC(=NCc1ccccc1)NCc1ccccc1` showed TGI equal to > 100 µM

The compound COC(=O)C(C)NP(=O)(OCc1ccc(Cn2cnc3c(N)ncnc32)cc1)Oc1ccccc1 (stereo unspecified) showed TGI equal to > 100 µM

====

Overview of recorded TGI for various compounds
test system: SK-OV-3 ovarian; experiment: NCI tumour cell line growth inhibition, 48 h

{"compound": "CC(C)OP(=O)(OC(C)C)/C(F)=N/Nc1ccc([N+](=O)[O-])cc1", "system_under_test": "SK-OV-3 ovarian", "TGI": "> 100 µM"}
{"compound": "COC(=O)C1(CCC(=O)N(C)c2ccccc2)NNC2C(=O)N(c3ccccc3)C(=O)C21 (centres undefined)", "system_under_test": "SK-OV-3 ovarian", "TGI": "> 10 µM"}
{"compound": "N#CC(NCCc1ccccc1)c1ccc(C(C#N)NCCc2ccccc2)cc1 (centres undefined)", "system_under_test": "SK-OV-3 ovarian", "TGI": "> 100 µM"}

Response field TGI (SK-OV-3 ovarian) for item COc1ccc2c(c1OC)C(=O)OC2C1c2c(c(N)c3c(c2OC)OCO3)CCN1C (centres undefined) : 23.4 µM

Response field TGI (SK-OV-3 ovarian) for item `CC(=O)/C(=C\c1ccccc1)C(=O)Nc1ccccc1` : > 100 µM

Response field TGI (SK-OV-3 ovarian) for item `CC(=O)OCc1cc(=O)n2c([nH]c3ccccc32)c1C#N` : > 100 µM

Response field TGI (SK-OV-3 ovarian) for item `Fc1ccc(-c2ncn(C3CCNCC3)c2-c2ccnc(Oc3cccc(C(F)(F)F)c3)n2)cc1` : 7.31 µM

Response field TGI (SK-OV-3 ovarian) for item O=C(OC1C(Oc2ccccc2COC(=O)C2(O)C=CCCC2=O)OC(CO)C(O)C1O)c1ccccc1 (centres undefined) : > 100 µM

====

test system: SK-OV-3 ovarian; experiment: NCI tumour cell line growth inhibition, 48 h
Overview of recorded TGI for various compounds

{"compound": "C=C1C(=O)C23CC1CCC2C12CO[C@H](O)[C@H]1C(C)(C)[C@H](OC(C)=O)C[C@H]2OC3=O (stereo partly specified)", "TGI": "> 100 µM"}
{"compound": "Cc1cc(O)c(C=NC(=S)c2ccncc2)c(=O)o1", "TGI": "> 100 µM"}
{"compound": "S=C1Nc2cnc3ccccc3c2SC1c1ccccc1 (stereo unspecified)", "TGI": "> 100 µM"}
{"compound": "O=C1C2=C(C(c3ccccc3)=C1c1ccccc1)c1ccccc1C1(c3ccccc3)C2=C(O)C(c2ccccc2)=C1c1ccccc1 (stereo unspecified)", "TGI": "> 100 µM"}
{"compound": "O=C(O)C(CO)N=Cc1nc(-c2ccccc2)oc1O (stereo unspecified)", "TGI": "> 100 µM"}

Now let's try a different one.
The compound `NS(=O)(=O)c1ccc(N=Nc2c(O)[nH]c3ccc(Cl)cc23)cc1` showed TGI equal to 14.5 µM
